# test: A549 lung cancer cell viability effects, profiling panel, resazurin fluorescence, 24 h, PK04 Diversity Set (AID 1171); note: test concentration not given here
# condition info: higher = more signal, called active from +8 up or from −8 down
The source made the active and inactive calls.
measured attribute: z-score

Some compounds with known z-score results, for comparison:
CN1CCC(CCCO)=CC1C1CC1 (centres undefined)	-0.0682 (inactive)
CO[C@H]1COC(=O)CC=C[C@H](C)[C@@H](OC)COC(=O)CC=C[C@@H]1C	0.99 (inactive)

Please state z-score for every compound in the list that follows.
1. CO[C@H]1COC(=O)[C@@H](C)COC(=O)[C@H](Cc2ccccc2)NC(=O)CC=C[C@H]1C
2. CCC(=O)[C@]12O[C@@]3([C@@H]4C(=O)OCC[C@@H]41)N(CC)C(C)=C(C(=O)OC)[C@@H](c1ccccc1)N3C2=O

Response line:
1. 0.733 (inactive)
2. -0.257 (inactive)

Please state z-score for every compound in the list that follows.
1. CC(=O)NCCCC[C@@H]1NC(=O)[C@@H]2C[C@H](C(=O)NCCCCCNC(=O)CS)[C@H](c3ccc(O)cc3)N2C1=O
2. COC(=O)[C@@]1(Cc2ccccc2)[C@H]2c3cc(C(=O)N4CCCC4)n(CCN4CNCC4=O)c3C[C@H]2CN1C(=O)c1ccccc1
3. C=CCc1cccc([C@H]2N[C@H](C(=O)O)CC[C@@H]2C)c1
4. CC(C)NC(=O)[C@@]1(Cc2ccccc2I)c2ccccc2C(=O)N(C2CCCCC2)[C@H]1c1ccc(CO)cc1
5. C=CC[C@@]1(C(=O)N2CCOCC2)N=C(c2ccc(OCCCO)cc2)O[C@@H]1c1ccccc1

Response line:
1: 1.46 (inactive); 2: 0.0269 (inactive); 3: 0.553 (inactive); 4: 0.778 (inactive); 5: 1.85 (inactive)
